assayed system: SMARCA2-HiBiT HeLa cells (protein which is expressed from the SMARCA2 gene) (Homo sapiens)
Construct: protein which is expressed from the SMARCA2 and SMARCA4 genes; host or cells: HeLa (SMARCA2-HiBiT engineered line)
Sequence (P51531 whole entry): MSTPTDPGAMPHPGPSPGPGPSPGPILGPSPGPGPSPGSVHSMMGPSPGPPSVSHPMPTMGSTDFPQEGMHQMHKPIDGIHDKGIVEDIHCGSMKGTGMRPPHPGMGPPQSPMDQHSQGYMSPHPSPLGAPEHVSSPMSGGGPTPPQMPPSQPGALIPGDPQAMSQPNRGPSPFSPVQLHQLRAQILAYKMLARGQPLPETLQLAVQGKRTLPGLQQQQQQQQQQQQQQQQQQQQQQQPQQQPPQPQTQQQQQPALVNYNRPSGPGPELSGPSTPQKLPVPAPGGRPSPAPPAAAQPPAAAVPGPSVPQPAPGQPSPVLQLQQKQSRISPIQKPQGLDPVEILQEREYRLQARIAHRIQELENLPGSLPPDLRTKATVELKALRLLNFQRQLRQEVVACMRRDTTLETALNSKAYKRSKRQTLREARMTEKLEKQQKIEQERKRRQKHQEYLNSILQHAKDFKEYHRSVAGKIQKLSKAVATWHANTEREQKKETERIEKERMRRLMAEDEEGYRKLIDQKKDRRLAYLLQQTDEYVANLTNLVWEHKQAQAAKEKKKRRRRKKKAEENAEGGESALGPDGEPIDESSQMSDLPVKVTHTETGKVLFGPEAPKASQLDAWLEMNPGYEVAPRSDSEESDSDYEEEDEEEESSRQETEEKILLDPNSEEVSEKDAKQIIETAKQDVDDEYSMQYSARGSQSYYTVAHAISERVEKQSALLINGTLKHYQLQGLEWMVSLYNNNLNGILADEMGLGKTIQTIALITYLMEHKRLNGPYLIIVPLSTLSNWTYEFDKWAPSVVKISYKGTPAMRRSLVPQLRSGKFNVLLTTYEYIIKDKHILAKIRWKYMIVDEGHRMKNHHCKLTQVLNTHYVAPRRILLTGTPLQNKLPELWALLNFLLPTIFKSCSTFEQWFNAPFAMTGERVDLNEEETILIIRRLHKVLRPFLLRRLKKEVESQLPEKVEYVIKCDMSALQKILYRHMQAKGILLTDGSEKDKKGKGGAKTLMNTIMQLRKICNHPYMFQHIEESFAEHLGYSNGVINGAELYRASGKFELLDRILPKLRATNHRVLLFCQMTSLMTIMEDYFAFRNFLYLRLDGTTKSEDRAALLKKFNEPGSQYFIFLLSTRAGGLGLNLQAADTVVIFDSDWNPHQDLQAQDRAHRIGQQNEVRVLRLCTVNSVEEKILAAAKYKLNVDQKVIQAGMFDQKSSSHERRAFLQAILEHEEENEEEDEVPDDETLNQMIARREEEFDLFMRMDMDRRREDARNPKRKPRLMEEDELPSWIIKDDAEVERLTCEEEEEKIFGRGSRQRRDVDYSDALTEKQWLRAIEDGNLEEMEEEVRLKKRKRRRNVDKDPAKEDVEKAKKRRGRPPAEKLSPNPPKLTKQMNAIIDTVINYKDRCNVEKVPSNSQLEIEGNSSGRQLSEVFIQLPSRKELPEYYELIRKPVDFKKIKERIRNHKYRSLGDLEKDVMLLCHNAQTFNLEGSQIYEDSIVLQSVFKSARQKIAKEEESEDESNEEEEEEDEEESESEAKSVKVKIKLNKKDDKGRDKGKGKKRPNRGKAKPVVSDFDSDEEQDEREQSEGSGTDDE
test summary: SMARCA2 degradation assay (HiBiT-fusion HeLa cell line, 24 h, luminescence)
Type: cell-based
metric: DC50

compound="Cc1nn2ccn(CC#Cc3nccc(N4CC5CCC(C4)N5c4cc(-c5ccccc5O)nnc4N)n3)c(=O)c2c1C [Compound P-282]" measured_value="50 to 500 nM"
compound="C[C@@H]1CCN(c2cc(-c3ccccc3O)nnc2N)CCN1c1ccc(C(F)(F)F)c(C#CCN2CCCC2)n1 [Compound P-394]" measured_value="500 to 5000 nM"
compound="Nc1nnc(-c2ccccc2O)cc1N1CCCN(c2ccnc(C#CCCNC(=O)c3cc4ncccn4n3)n2)CC1 [Compound P-23]" measured_value="50 to 500 nM"
compound="Nc1nnc(-c2ccccc2O)cc1N1CC2CN(c3ccnc(C#CCNC(=O)c4cc5ncccn5n4)n3)CC21 (stereo not shown) [Compound P-45]" measured_value="500 to 5000 nM"
compound="C[C@@H]1CCN(c2cc(-c3ccccc3O)nnc2N)CCN1c1ccnc(C#CCN(C)C)c1C#N [Compound P-406]" measured_value="500 to 5000 nM"
compound="Nc1nnc(-c2ccccc2O)cc1OC1CC2CN(c3ccnc(C#CCN4CCOCC4)n3)CC2C1 (stereo not shown) [Compound P-220]" measured_value="50 to 500 nM"
compound="CCc1cc(C(=O)NCC#Cc2nccc(N3CCN(c4cc(-c5ccccc5O)nnc4N)CC3)n2)nn1C [Compound P-2]" measured_value="50 to 500 nM"
